# System: West Nile virus
# EXPERIMENTAL DETAILS: Inhibition of WNV NS2B/NS3 protease using Bz-Nle-Lys-Arg-Arg-AMC as substrate at 25 uM by spectrofluorometric analysis relative to control
Use yes (1) when the recorded inhibition is no lower than 50%; use no (0) when it is lower.

Worked cases, answers included:
COMPOUND: N#Cc1ccc(-c2nnc(C(Cc3ccccc3)n3sc4ccccc4c3=O)o2)cc1 (centres undefined)
CATEGORY LABEL: yes (1)
--
COMPOUND: O=c1c2ccccc2sn1C(Cc1ccccc1)c1nnc(-c2ccc(Cl)cc2)o1 (centres undefined)
CATEGORY LABEL: yes (1)
--
COMPOUND: O=c1c2ccccc2sn1C(Cc1cccc(F)c1)c1nnc(-c2cccc(Cl)c2)o1 (centres undefined)
CATEGORY LABEL: no (0)
--
COMPOUND: COc1ccc(Cc2nnc(C(C)n3sc4ccccc4c3=O)o2)cc1 (centres undefined)
CATEGORY LABEL: no (0)
--
COMPOUND: O=c1c2ccccc2sn1C(Cc1ccccc1)c1nnc(-c2ccc(F)cc2)o1 (centres undefined)
CATEGORY LABEL: yes (1)

Here is the next item to consider.
Q) Does Cc1nnc(C(Cc2ccccc2)n2sc3ccccc3c2=O)o1 (centres undefined) have a reported inhibition of at least 50%?
A) no (0)

----------
# Test system: dengue virus type 2
# EXPERIMENTAL DETAILS: Inhibition of DENV2 NS2B/NS3 protease expressed in Escherichia coli Top 10 F' using Bz-Nle-Lys-Arg-Arg-AMC as substrate at 25 uM by spectroflorometer analysis relative to control
ENDPOINT NAME: inhibition (%)
Reply with just the number (in %).

Examples with answers:
COMPOUND: COc1ccc(Cc2nnc(C(C)n3sc4ccccc4c3=O)o2)cc1 (stereo not drawn)
EXPERIMENTAL SYSTEM: dengue virus type 2
ENDPOINT NAME: inhibition
ENDPOINT RESULT: 17.8

COMPOUND: O=c1c2ccccc2sn1C(Cc1ccccc1)c1nnc(Cc2ccccc2)o1 (stereo not drawn)
EXPERIMENTAL SYSTEM: dengue virus type 2
ENDPOINT NAME: inhibition
ENDPOINT RESULT: 31.2

Could you now look at the following compound, please?
Q) Data request, read-out inhibition, for O=c1c2ccccc2sn1C(Cc1ccccc1)c1nnc(-c2ccco2)o1 (stereo not drawn)
A) 64.7

----------
Quick list: inhibition per entry.
# System: dengue virus type 2
# EXPERIMENTAL DETAILS: Inhibition of DENV2 NS2B/NS3 protease expressed in Escherichia coli Top 10 F' using Bz-Nle-Lys-Arg-Arg-AMC as substrate at 10 uM by spectroflorometer analysis relative to control
Reply with just the number (in %).

COMPOUND: CCOc1ccc(-c2nnc(C(Cc3ccccc3)n3sc4ccccc4c3=O)o2)cc1 (stereo not drawn)
EXPERIMENTAL SYSTEM: dengue virus type 2
ENDPOINT RESULT: 40.6
--
COMPOUND: Cc1nnc(C(Cc2ccccc2)n2sc3ccccc3c2=O)o1 (stereo not drawn)
EXPERIMENTAL SYSTEM: dengue virus type 2
ENDPOINT RESULT: 20
--
COMPOUND: COc1ccc(Cc2nnc(Cn3sc4ccccc4c3=O)o2)cc1
EXPERIMENTAL SYSTEM: dengue virus type 2
ENDPOINT RESULT: 5.27
--
COMPOUND: O=c1c2ccccc2sn1C(Cc1ccccc1)c1nnc(-c2ccco2)o1 (stereo not drawn)
EXPERIMENTAL SYSTEM: dengue virus type 2
ENDPOINT RESULT: 52.3
--
COMPOUND: N#Cc1ccc(-c2nnc(C(Cc3ccccc3)n3sc4ccccc4c3=O)o2)cc1 (stereo not drawn)
EXPERIMENTAL SYSTEM: dengue virus type 2
ENDPOINT RESULT: 63.9

Q) Data request, read-out inhibition, for O=c1c2ccccc2sn1Cc1nnc(-c2cccc(Cl)c2)o1
A) 5.21

Q) Then O=c1c2ccccc2sn1C(Cc1ccccc1)c1nnc(Cc2ccccc2)o1 (stereo not drawn) ?
A) 22.4

Q) Then COc1ccc(Cc2nnc(C(Cc3ccccc3)n3sc4ccccc4c3=O)o2)cc1 (stereo not drawn) ?
A) 28.5
